procedure.details: physchem
Type: physicochemical
conditions: water, 20°C (Table II); read-out: SOLUBILITY IN WATER at 20°
Procedure: On the other hand, radiologists need compounds with a wide range of uses: for example, angiography, urography, myelography, cisternography, lymphography, cardiography and gastrography. The products according to this invention fulfil the requirements for the above uses, as they have high water solubility, normally higher than 60% (w/v), which, in some cases, is as high as 100% at 20°C, without showing any tendency to crystallize. […]
recorded.metric: solubility

>>> result("CN(C(=O)CN(CCO)CC(=O)N(C)c1c(I)c(C(=O)NCCO)c(I)c(C(=O)NCCO)c1I)c1c(I)c(C(=O)NCCO)c(I)c(C(=O)NCCO)c1I")
"< 600 mg/mL"
>>> result("CN(CC(=O)N(C)c1c(I)c(C(=O)NCC(O)CO)c(I)c(C(=O)NCC(O)CO)c1I)CC(=O)N(C)c1c(I)c(C(=O)NCC(O)CO)c(I)c(C(=O)NCC(O)CO)c1I (centres unmarked)")
"> 600 mg/mL"
>>> result("CN(C(=O)CN(CCO)CC(=O)N(C)c1c(I)c(C(=O)NC(CO)C(O)CO)c(I)c(C(=O)NC(CO)C(O)CO)c1I)c1c(I)c(C(=O)NCCO)c(I)c(C(=O)NCCO)c1I (centres unmarked)")
"> 600 mg/mL"
>>> result("O=C(CN(CC(=O)Nc1c(I)c(C(=O)NCC(O)CO)c(I)c(C(=O)NCC(O)CO)c1I)CC(O)CO)Nc1c(I)c(C(=O)NCC(O)CO)c(I)c(C(=O)NCC(O)CO)c1I (centres unmarked)")
"> 600 mg/mL"
>>> result("COCCN(CC(=O)Nc1c(I)c(C(=O)NCC(O)CO)c(I)c(C(=O)NCC(O)CO)c1I)CC(=O)Nc1c(I)c(C(=O)NCC(O)CO)c(I)c(C(=O)NCC(O)CO)c1I (centres unmarked)")
"> 600 mg/mL"

// for each compound below, give its solubility
1. CN(C(=O)CN(CCO)CC(=O)Nc1c(I)c(C(=O)NCCO)c(I)c(C(=O)NCCO)c1I)c1c(I)c(C(=O)NC(CO)C(O)CO)c(I)c(C(=O)NC(CO)C(O)CO)c1I (centres unmarked)
2. CN(C(=O)CN(CCO)CC(=O)Nc1c(I)c(C(=O)NCC(O)CO)c(I)c(C(=O)NCC(O)CO)c1I)c1c(I)c(C(=O)NCCO)c(I)c(C(=O)NCCO)c1I (centres unmarked)
3. CN(CC(=O)Nc1c(I)c(C(=O)NCC(O)CO)c(I)c(C(=O)NCC(O)CO)c1I)CC(=O)Nc1c(I)c(C(=O)NCC(O)CO)c(I)c(C(=O)NCC(O)CO)c1I (centres unmarked)

Ans:
["> 600 mg/mL", "< 600 mg/mL", "< 600 mg/mL"]
